species on record: Oryctolagus cuniculus; assay: Activation of rabbit skeletal muscle PP1 catalytic subunit at 19 to 395 uM using [32P]MLC20 as substrate pretreated for 10 mins followed by substrate addition measured after 10 mins by scintillation counting method relative to control
Calls of active or inactive are those of the source. The calls are words filed in the database; no cut-off is given here.
Labels: active, inactive

>>> labelvalue("CC(=O)OC[C@H]1O[C@@H]([Se]Cc2ccc(Br)cc2)[C@H](OC(C)=O)[C@@H](OC(C)=O)[C@@H]1OC(C)=O")
"active"
>>> labelvalue("CC(=O)N[C@@H]1[C@@H](OC(C)=O)[C@H](OC(C)=O)[C@@H](COC(C)=O)O[C@H]1[Se]c1ccc([N+](=O)[O-])cn1")
"inactive"
>>> labelvalue("CC(=O)OC[C@H]1O[C@@H]([Se]Cc2ccccc2C(F)(F)F)[C@H](OC(C)=O)[C@@H](OC(C)=O)[C@@H]1OC(C)=O")
"active"
>>> labelvalue("CC(=O)OC[C@H]1O[C@@H]([Se]Cc2ccccc2)[C@H](OC(C)=O)[C@@H](OC(C)=O)[C@@H]1OC(C)=O")
"active"
>>> labelvalue("CC(=O)N[C@@H]1[C@@H](OC(C)=O)[C@H](OC(C)=O)[C@@H](COC(C)=O)O[C@H]1[Se]C(=O)c1ccc(C)cc1")
"active"
>>> labelvalue("CC(=O)OC[C@H]1O[C@@H]([Se]c2ccc([N+](=O)[O-])cn2)[C@H](OC(C)=O)[C@@H](OC(C)=O)[C@@H]1OC(C)=O")
"inactive"
>>> labelvalue("OC[C@H]1O[C@@H]([Se]Cc2ccccc2)[C@H](O)[C@@H](O)[C@@H]1O")
"inactive"
